# system-under-test: ScCyk3
# method-description: SPOT peptide array binding signal intensity (averaged, normalized) (arbitrary units (background-subtracted, floor 0; scale differs between SH3 domains)); higher = stronger binding of the SH3 domain to the peptide
Would you kindly list SPOT peptide array binding signal intensity for each of these binders?
One number for each entry.

// below: answered binders
| binder | observed-measurement |
| --- | --- |
| LASNSPPVYPKRIRH | 1 |
| KDKKTKPTPPPKPSH | 1 |

Continue with the next binder.
# return recorded SPOT peptide array binding signal intensity for entry "GERSRPLVISILSSA"
121
